Examples of compounds with documented composite z-score follow.
# Tested on: Noggin (protein binding on small-molecule microarray)
# Measurement Protocol: small molecules binding Noggin protein – biochemical, 635/667 nm fluorescence, primary screen (AID 1095);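 note: score merges 667 nm feature fluorescence with signal to noise over triplicate slides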
# Assay Context: 635 nm fluorescence, higher = more signal

Compound	composite z-score
COc1ccc([Si](C)(C)[C@H]2[C@H](CCn3cc(CCO)nn3)O[C@@]3(C(=O)N(Cc4cccc(N5C(=O)c6cccc7cccc5c67)c4)c4ccccc43)[C@@H]2C)cc1	1.03
COC(=O)C(CC#Cc1ccc2c(c1)[C@]1(C(=O)N2)[C@H](c2ccc(O)cc2)N2[C@H](c3ccccc3)[C@H](c3ccccc3)OC(=O)[C@H]2[C@@H]1C(N)=O)C(=O)OC	-2.58
COc1ccccc1CN1C(=O)c2ccccc2[C@](Cc2ccccc2I)(C(=O)NCCN2CCOCC2)[C@@H]1c1ccc(CO)cc1	1.12
O=C(O)[C@@]1(Cc2ccccc2)COC(c2ccc(OCCCO)cc2)=N1	-0.66
COCCCNC(=O)[C@@]1(Cc2ccccc2CN=[N+]=[N-])N=C(c2ccc(OCCCO)cc2)O[C@H]1c1ccccc1N=[N+]=[N-]	0.399
C[C@H]1NC(=O)C([C@@H](C)OCc2ccccc2)NC(=O)[C@@]23C(=O)N[C@@H](Cc4ccccc4)C2[C@H](C)[C@@]2(C)O[C@H]2C3/C=C/CC/C=C/CNC1=O (stereo not given in full)	0.598
O=[N+]([O-])c1ccc(C[n+]2ccc(-c3ccc(CO)cc3)cc2)o1	0.526
COC(=O)C(CC#Cc1ccc2c(c1)[C@]1(C(=O)N2)[C@H](c2ccccc2OCCO)N2[C@H](c3ccccc3)[C@H](c3ccccc3)OC(=O)[C@H]2[C@@H]1C(=O)Nc1nc2ccccc2s1)C(=O)OC	1.24
COC(=O)c1ccc(OC)c(/C=C\CC(CCc2ccccc2)OC(C)=O)c1 (stereo not given)	-0.358
O=C(NCc1ccccc1)[C@]1(Cc2ccccc2)N=C(c2ccc(OCCCO)cc2)O[C@@H]1c1ccccc1	-0.102
C#CCOC(=O)N[C@H](C=CCCCC)c1ccccc1	-0.373
O=C1NC(=O)C2C1C=CC(C(O)c1ccc(-c3ccccc3)s1)N2Nc1ccccn1 (stereo not given)	-0.0414
O=C1N(CCS(=O)(=O)c2ccccc2)Cc2ccccc2C[C@@]12COC(c1ccc(OCCCO)cc1)=N2	0.982
COCCOC(=O)N1C(=O)[C@@]2(c3cc(C#Cc4ccc(OC)cc4)ccc31)[C@H](C(N)=O)[C@H]1C(=O)O[C@H](c3ccccc3)[C@H](c3ccccc3)N1[C@@H]2c1ccc(OCCO)cc1	1.43
CC(=O)NCCCC[C@@H]1NC(=O)[C@H]2C[C@@H](C(=O)NCCCCCN)[C@@H](c3cccc(OCCO)c3)N2C1=O	0.559

---

# Target System: Neurogenic locus notch homolog protein 3 (Homo sapiens) (UniProt Q9UM47)
# Sequence (Q9UM47 whole entry, looked up): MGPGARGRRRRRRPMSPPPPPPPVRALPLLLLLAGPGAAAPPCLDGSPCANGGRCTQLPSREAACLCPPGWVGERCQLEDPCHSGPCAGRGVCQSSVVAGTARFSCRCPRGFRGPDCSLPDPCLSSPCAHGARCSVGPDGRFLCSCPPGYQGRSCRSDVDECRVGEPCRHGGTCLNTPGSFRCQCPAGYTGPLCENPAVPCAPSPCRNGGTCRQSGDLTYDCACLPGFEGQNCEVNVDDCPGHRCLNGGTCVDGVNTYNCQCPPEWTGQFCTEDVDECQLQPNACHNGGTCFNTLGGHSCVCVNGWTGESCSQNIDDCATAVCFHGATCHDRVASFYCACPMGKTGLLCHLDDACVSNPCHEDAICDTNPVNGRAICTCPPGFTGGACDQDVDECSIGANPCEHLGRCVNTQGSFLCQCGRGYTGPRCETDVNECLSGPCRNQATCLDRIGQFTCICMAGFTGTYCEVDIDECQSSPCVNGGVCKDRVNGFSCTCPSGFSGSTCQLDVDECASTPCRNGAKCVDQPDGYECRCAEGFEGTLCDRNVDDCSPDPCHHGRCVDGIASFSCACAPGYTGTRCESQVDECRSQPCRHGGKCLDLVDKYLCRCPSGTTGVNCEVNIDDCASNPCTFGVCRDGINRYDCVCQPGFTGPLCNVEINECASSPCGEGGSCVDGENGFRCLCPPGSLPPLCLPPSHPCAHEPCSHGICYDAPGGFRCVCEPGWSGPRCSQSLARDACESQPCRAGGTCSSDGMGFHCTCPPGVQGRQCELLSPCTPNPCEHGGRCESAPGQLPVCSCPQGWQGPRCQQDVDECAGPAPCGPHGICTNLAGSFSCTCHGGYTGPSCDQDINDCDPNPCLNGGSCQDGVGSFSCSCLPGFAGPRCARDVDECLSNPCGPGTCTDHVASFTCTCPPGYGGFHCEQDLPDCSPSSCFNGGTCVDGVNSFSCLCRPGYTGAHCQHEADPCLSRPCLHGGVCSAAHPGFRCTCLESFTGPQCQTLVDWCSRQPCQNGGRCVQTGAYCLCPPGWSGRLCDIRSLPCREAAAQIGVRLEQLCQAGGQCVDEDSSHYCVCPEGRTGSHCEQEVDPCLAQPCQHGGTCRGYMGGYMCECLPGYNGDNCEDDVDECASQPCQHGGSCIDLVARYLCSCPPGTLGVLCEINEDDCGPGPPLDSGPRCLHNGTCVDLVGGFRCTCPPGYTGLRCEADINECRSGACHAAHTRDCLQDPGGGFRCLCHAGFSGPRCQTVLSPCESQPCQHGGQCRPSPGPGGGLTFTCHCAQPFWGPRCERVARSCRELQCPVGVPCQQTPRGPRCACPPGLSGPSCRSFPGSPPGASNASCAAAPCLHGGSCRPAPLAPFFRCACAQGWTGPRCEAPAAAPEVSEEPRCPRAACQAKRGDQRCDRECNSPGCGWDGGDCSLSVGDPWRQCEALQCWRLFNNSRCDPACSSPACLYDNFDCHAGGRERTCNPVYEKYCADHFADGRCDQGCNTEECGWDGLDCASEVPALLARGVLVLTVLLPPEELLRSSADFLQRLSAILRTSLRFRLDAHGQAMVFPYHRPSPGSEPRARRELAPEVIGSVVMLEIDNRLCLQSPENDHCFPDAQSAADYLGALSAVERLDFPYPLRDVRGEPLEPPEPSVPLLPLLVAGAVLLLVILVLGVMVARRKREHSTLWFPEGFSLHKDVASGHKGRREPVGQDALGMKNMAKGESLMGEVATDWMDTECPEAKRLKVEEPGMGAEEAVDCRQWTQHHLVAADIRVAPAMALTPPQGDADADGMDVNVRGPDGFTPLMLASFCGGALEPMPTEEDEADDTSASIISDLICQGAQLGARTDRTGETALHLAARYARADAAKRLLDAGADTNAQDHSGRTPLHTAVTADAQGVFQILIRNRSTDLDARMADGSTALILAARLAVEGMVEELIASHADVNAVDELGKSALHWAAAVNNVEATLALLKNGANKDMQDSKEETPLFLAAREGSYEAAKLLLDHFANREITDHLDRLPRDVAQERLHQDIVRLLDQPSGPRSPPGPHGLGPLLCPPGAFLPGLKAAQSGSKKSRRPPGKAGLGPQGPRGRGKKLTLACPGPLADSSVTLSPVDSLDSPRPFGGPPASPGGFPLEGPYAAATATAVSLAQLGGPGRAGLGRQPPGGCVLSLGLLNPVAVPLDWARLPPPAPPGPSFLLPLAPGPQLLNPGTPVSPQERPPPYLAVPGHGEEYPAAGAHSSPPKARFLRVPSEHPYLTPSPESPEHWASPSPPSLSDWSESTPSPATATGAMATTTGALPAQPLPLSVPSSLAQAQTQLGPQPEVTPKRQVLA
# Measurement Protocol: small molecules binding NOTCH3 protein – biochemical, 635/667 nm fluorescence, primary screen (AID 1096)
# Assay Context: small-molecule microarray, 635 nm fluorescence, higher = more signal
Param threshold (0.6) applies to composite z-score; output t when value >= threshold, f when value < threshold.

Molecule	Target System	Label Class
O=C1NC(=O)C2C1C=CC(C(O)c1ccc3c(c1)OCO3)N2Nc1ccc(Cl)cc1Cl (stereo not drawn)	Neurogenic locus notch homolog protein 3 (Homo sapiens) (UniProt Q9UM47)	f
O=[N+]([O-])c1ccc(C[n+]2ccc(-c3ccc(CO)cc3)cc2)o1	Neurogenic locus notch homolog protein 3 (Homo sapiens) (UniProt Q9UM47)	t
CCCNC(=O)[C@@H]1c2ccccc2C(=O)N(CC23CC4CC(CC(C4)C2)C3)[C@H]1c1ccc(CO)cc1	Neurogenic locus notch homolog protein 3 (Homo sapiens) (UniProt Q9UM47)	t
O=C1N(Cc2ccccc2)c2ccccc2[C@H]2OC(c3ccc(OCCCO)cc3)=N[C@@]12CCS(=O)(=O)c1ccccc1	Neurogenic locus notch homolog protein 3 (Homo sapiens) (UniProt Q9UM47)	t
NC(=O)[C@@H]1[C@H]2C(=O)O[C@H](c3ccccc3)[C@H](c3ccccc3)N2[C@H](c2ccccc2OCCO)[C@@]12C(=O)Nc1ccc(C#CCCO)cc12	Neurogenic locus notch homolog protein 3 (Homo sapiens) (UniProt Q9UM47)	f
C[N+](C)(C)CCCC[C@@H]1NC(=O)[C@@H]2C[C@H](C(=O)O)[C@H](c3cccc(OCCO)c3)N2C1=O	Neurogenic locus notch homolog protein 3 (Homo sapiens) (UniProt Q9UM47)	f
CO[C@H]1O[C@H](CO)[C@@H](OC(=O)c2ccc(Br)cc2)[C@@H]2OC(=O)[C@H](Cc3cccc(Br)c3)C/C=C/C[C@@H](Cc3cccc(Br)c3)C(=O)O[C@@H]12	Neurogenic locus notch homolog protein 3 (Homo sapiens) (UniProt Q9UM47)	t
O=c1c2ccc(Br)cc2nc(-c2ccccc2)n1Cc1cccc(O)c1	Neurogenic locus notch homolog protein 3 (Homo sapiens) (UniProt Q9UM47)	f
COc1ccccc1CN1C(=O)c2ccccc2[C@@]2(Cc3ccccc3N(C3CC3)C2=O)[C@@H]1c1ccc(CO)cc1	Neurogenic locus notch homolog protein 3 (Homo sapiens) (UniProt Q9UM47)	f
OCc1ccc(-c2cc[n+](Cc3cccc(OC(F)(F)F)c3)cc2)cc1	Neurogenic locus notch homolog protein 3 (Homo sapiens) (UniProt Q9UM47)	t
COCCOC(=O)N1C(=O)[C@@]2(c3cc(C#CC4(O)CCCCCC4)ccc31)[C@H](C(=O)NC[C@H](O)c1ccccc1)[C@H]1C(=O)O[C@H](c3ccccc3)[C@H](c3ccccc3)N1[C@@H]2c1ccc(OCCO)cc1	Neurogenic locus notch homolog protein 3 (Homo sapiens) (UniProt Q9UM47)	t
COc1ccc([Si](C)(C)[C@@H]2[C@@H](CCO)O[C@]3(C(=O)N(Cc4ccc(N5C(=O)c6ccccc6Oc6ccccc65)cc4)c4ccccc43)[C@H]2C)cc1	Neurogenic locus notch homolog protein 3 (Homo sapiens) (UniProt Q9UM47)	f
CCOc1cc(C(O)C2C=CC3C(=O)NC(=O)C3N2Nc2ccccn2)ccc1O (stereo not drawn)	Neurogenic locus notch homolog protein 3 (Homo sapiens) (UniProt Q9UM47)	f
COc1ccc(C#Cc2ccc3c(c2)[C@]2(C(=O)N3)[C@H](C(=O)O)[C@H]3C(=O)O[C@H](c4ccccc4)[C@H](c4ccccc4)N3[C@@H]2c2ccc(OCCO)cc2)cc1	Neurogenic locus notch homolog protein 3 (Homo sapiens) (UniProt Q9UM47)	t
COCCCNC(=O)[C@@H]1c2ccccc2C(=O)N(Cc2cc(F)cc(C(F)(F)F)c2)[C@H]1c1ccc(CO)cc1	Neurogenic locus notch homolog protein 3 (Homo sapiens) (UniProt Q9UM47)	f
COc1cccc(C)c1NC(=O)O[C@H]1[C@H](OC(=O)Nc2ccccc2)[C@H](OC(=O)Nc2ccccc2)[C@@H](OC)O[C@@H]1CO	Neurogenic locus notch homolog protein 3 (Homo sapiens) (UniProt Q9UM47)	t
COc1cc2c(cc1OC)CN(C(=O)[C@@H]1[C@H]3C(=O)O[C@H](c4ccccc4)[C@H](c4ccccc4)N3[C@H](c3ccc(OCCO)cc3)[C@@]13C(=O)Nc1ccc(C#CCCO)cc13)CC2	Neurogenic locus notch homolog protein 3 (Homo sapiens) (UniProt Q9UM47)	t
Cc1ccccc1C(O)C1C=CC2C(=O)N(Cc3ccccc3)C(=O)C2N1n1cnnc1 (stereo not drawn)	Neurogenic locus notch homolog protein 3 (Homo sapiens) (UniProt Q9UM47)	t
Cc1ccc(C(C)CC(O)C2C=CC3C(=O)N(Cc4ccccc4)C(=O)C3N2n2cnnc2)o1 (stereo not drawn)	Neurogenic locus notch homolog protein 3 (Homo sapiens) (UniProt Q9UM47)	t
CC1C=C(CCCO)C=C(C(=O)OCCS(C)(=O)=O)C(C(=O)OCCS(C)(=O)=O)=CN1Cc1cccc(OC(F)(F)F)c1 (stereo not drawn)	Neurogenic locus notch homolog protein 3 (Homo sapiens) (UniProt Q9UM47)	f
C=CC[C@]1(C(=O)NCC(O)CO)N=C(c2ccc(OCCCO)cc2)O[C@H]1c1ccccc1N=[N+]=[N-] (stereo partly drawn)	Neurogenic locus notch homolog protein 3 (Homo sapiens) (UniProt Q9UM47)	f
O=C1O[C@@H](c2ccccc2)[C@@H](c2ccccc2)N2[C@@H](c3ccc(O)cc3)[C@]3(C(=O)Nc4ccc(C#CC5(O)CCCCCC5)cc43)[C@@H](C(=O)N3CCN(c4ncccn4)CC3)[C@H]12	Neurogenic locus notch homolog protein 3 (Homo sapiens) (UniProt Q9UM47)	t
COc1ccc([Si](C)(C)[C@@H]2[C@@H](CC(=O)N(CCO)Cc3ccccc3)O[C@]3(C(=O)N(C)c4c(Br)cc(C)cc43)[C@H]2C)cc1	Neurogenic locus notch homolog protein 3 (Homo sapiens) (UniProt Q9UM47)	t
O=C1N(CCS(=O)(=O)c2ccccc2)Cc2ccccc2C[C@@]12COC(c1ccc(OCCCO)cc1)=N2	Neurogenic locus notch homolog protein 3 (Homo sapiens) (UniProt Q9UM47)	t
COCCOC(=O)N1C(=O)[C@@]2(c3cc(C#CCCO)ccc31)[C@H](c1ccc(OCCO)cc1)N1[C@H](c3ccccc3)[C@H](c3ccccc3)OC(=O)[C@H]1[C@@H]2C(=O)N1CCc2cc(OC)c(OC)cc2C1	Neurogenic locus notch homolog protein 3 (Homo sapiens) (UniProt Q9UM47)	t
COCCCNC(=O)[C@@]1(Cc2ccccc2)COC(c2ccc(OCCCO)cc2)=N1	Neurogenic locus notch homolog protein 3 (Homo sapiens) (UniProt Q9UM47)	f
CC(C)c1ccc(NN2C(C(O)c3cccs3)C=CC3C(=O)N(c4ccccc4)C(=O)C32)cc1 (stereo not drawn)	Neurogenic locus notch homolog protein 3 (Homo sapiens) (UniProt Q9UM47)	t
